target.system: recombinant novel amylase (Saccharolobus solfataricus)
Sequence (Q55088 1-559): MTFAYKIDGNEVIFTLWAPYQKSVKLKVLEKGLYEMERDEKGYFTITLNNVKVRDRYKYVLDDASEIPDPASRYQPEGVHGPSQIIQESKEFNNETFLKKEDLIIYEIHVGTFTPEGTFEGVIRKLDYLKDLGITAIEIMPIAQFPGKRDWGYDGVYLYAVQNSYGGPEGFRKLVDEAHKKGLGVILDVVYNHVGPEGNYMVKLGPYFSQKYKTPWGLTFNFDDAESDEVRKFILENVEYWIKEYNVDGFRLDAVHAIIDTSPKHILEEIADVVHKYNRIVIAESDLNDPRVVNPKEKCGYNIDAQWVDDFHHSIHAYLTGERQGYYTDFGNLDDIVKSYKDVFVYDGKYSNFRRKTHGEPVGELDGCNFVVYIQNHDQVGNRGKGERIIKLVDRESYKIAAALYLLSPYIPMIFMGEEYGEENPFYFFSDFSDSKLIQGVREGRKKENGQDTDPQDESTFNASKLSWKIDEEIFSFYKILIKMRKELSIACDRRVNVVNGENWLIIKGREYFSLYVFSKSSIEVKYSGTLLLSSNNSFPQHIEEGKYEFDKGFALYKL
experimental.details: Substrate specificity of the recombinant novel amylase (crude enzyme solution)
condition.parameters: 35.2 Units/ml crude enzyme solution; 10 mM substrate (amylopectin and soluble starch 3.0%)

| molecule | Liberated oligosaccharide |
| --- | --- |
| OC[C@H]1O[C@H](O[C@H]2O[C@H](CO)[C@@H](O)[C@H](O)[C@H]2O)[C@H](O)[C@@H](O)[C@@H]1O | not decomposed |
| OC[C@H]1O[C@H](OC[C@H]2O[C@H](OC[C@H]3O[C@H](OC[C@H]4OC(O)[C@H](O)[C@@H](O)[C@@H]4O)[C@H](O)[C@@H](O)[C@@H]3O)[C@H](O)[C@@H](O)[C@@H]2O)[C@H](O)[C@@H](O)[C@@H]1O (stereo partly shown) | not decomposed |
